target: human RXFP1 (Homo sapiens); assay: RXFP1 Hu cAMP (Test A); format: cell-based; set-up: expressed in transfected cells; host or cells: Jump-In T-REx CHO-K1 cells (ThermoFisher), induced with 10 ng/ml doxycycline for 24 h; conditions: RXFP1 Hu cAMP; read-out: Test A EC50
pEC50: −log10 of the molar value.
Measured pEC50 by item
quantity_kind: pEC50

>>> observed_measurement("COc1cc(C#N)c(O[C@H]2CC[C@@](C)(C(=O)O)CC2)cc1C(=O)N[C@@H]1[C@H]2CC[C@H](C2)[C@@H]1C(=O)NC1CCC(C)(C)CC1")
7.34
>>> observed_measurement("COc1cc(F)c(-c2cnc(CCC(=O)O)cn2)cc1C(=O)N[C@@H]1[C@H]2CC[C@H](C2)[C@@H]1C(=O)Nc1cccc(S(=O)(=O)C(F)(F)F)c1")
6.85
>>> observed_measurement("COc1cc(F)c(-c2ncc(C(=O)O)s2)cc1C(=O)N[C@H]1[C@@H](C(=O)Nc2cccc(S(=O)(=O)C(F)(F)F)c2)[C@@H]2C=C[C@H]1C2 (racemic)")
6.24
>>> observed_measurement("COc1ccc(O[C@H]2CC[C@@H](C(=O)O)CC2)cc1C(=O)N[C@@H]1[C@H]2CC[C@H](C2)[C@@H]1C(=O)Nc1cccc(S(=O)(=O)C(F)(F)F)c1")
7.03
>>> observed_measurement("COc1cc(F)c(-c2cccc(CC(=O)O)c2)cc1C(=O)N[C@@H]1CCC[C@@H]1C(=O)Nc1cccc(S(=O)(=O)C(F)(F)F)c1")
6.22
>>> observed_measurement("CC(C)Oc1cc(F)c(O[C@H]2CC[C@@](CO)(C(=O)O)CC2)cc1C(=O)N[C@@H]1[C@H]2CC[C@H](C2)[C@@H]1C(=O)NCC1(C)CCC1")
8.12
>>> observed_measurement("COc1cc(F)c(O[C@H]2CC[C@@](C)(C(=O)O)CC2)cc1C(=O)N[C@@H]1[C@@H](OC)CC[C@@H]1C(=O)Nc1cccc(S(=O)(=O)C(F)(F)F)c1 (racemic)")
6.77

----------
Measured Test A Sinf, listed per entry for reference.
Biological target: human RXFP1 (Homo sapiens, UniProt Q9HBX9)
Sequence (Q9HBX9 1-757): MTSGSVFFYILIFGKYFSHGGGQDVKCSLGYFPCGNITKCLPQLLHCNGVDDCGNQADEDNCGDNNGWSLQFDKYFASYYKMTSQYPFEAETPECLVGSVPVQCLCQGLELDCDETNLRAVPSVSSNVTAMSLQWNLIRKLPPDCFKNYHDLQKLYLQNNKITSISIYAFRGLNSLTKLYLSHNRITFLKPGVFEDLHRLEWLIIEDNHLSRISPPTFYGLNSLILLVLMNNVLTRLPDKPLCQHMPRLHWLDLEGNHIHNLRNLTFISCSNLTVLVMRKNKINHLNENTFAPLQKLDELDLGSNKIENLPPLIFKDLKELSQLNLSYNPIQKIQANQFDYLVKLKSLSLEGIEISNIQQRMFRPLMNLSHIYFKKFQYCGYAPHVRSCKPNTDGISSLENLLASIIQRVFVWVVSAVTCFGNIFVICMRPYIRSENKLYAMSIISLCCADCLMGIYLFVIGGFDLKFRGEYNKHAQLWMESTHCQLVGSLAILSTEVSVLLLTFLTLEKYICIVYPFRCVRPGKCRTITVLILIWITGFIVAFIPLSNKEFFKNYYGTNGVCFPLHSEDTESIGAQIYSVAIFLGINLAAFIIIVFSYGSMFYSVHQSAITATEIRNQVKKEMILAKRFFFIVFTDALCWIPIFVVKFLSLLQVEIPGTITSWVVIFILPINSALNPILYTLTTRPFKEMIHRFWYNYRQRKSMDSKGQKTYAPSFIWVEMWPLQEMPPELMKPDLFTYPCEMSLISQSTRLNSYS
Test: RXFP1 Hu cAMP (Test A)
Assay type: cell-based
Parameters: expressed in transfected cells; host or cells: Jump-In T-REx CHO-K1 cells (ThermoFisher), induced with 10 ng/ml doxycycline for 24 h
Settings: RXFP1 Hu cAMP
quantity_kind: Test A Sinf (%)

>>> observed_measurement("COC[C@]1(C(=O)O)CC[C@@H](Oc2cc(C(=O)N[C@@H]3[C@H]4CC[C@H](C4)[C@@H]3C(=O)NCC(C)(C)C)c(OC)cc2F)CC1 [Example 481]")
96
>>> observed_measurement("COc1cc(F)c(O[C@H]2CC[C@@](C)(C(=O)O)CC2)cc1C(=O)N[C@@H]1[C@H]2CC[C@H](C2)[C@@H]1C(=O)Nc1cccc(S(=O)(=O)C(F)(F)F)c1 [Example 208]")
108
>>> observed_measurement("COc1cc(F)c(O[C@H]2CC[C@@](C)(C(=O)O)CC2)cc1C(=O)NC1CCN(C(C)=O)CC1C(=O)Nc1cccc(S(=O)(=O)C(F)(F)F)c1 (single isomer, unassigned) [Example 514]")
107
>>> observed_measurement("COc1cc(C#N)c(O[C@H]2CC[C@@](C)(C(=O)O)CC2)cc1C(=O)N[C@@H]1[C@H]2CC[C@H](C2)[C@@H]1C(=O)NCCC1CC1 [Example 133]")
100
>>> observed_measurement("COc1cc(F)c(O[C@H]2CC[C@@H](C(=O)O)CC2)cc1C(=O)N[C@@H]1[C@H]2CC[C@H](C2)[C@@H]1C(=O)Nc1cccc(C(C)(C)C)c1 [Example 189]")
101
>>> observed_measurement("COc1cc(F)c(O[C@H]2CC[C@@](C)(C(=O)O)CC2)cc1C(=O)N[C@H]1[C@@H](C(=O)NCC2(C)CCC2)[C@@H]2CC[C@H]1O2 (racemic) [Example 358]")
99
>>> observed_measurement("COc1cc(F)c(O[C@H]2CC[C@@](C)(C(=O)O)CC2)cc1C(=O)N[C@@H]1COC[C@@H]1C(=O)Nc1cccc(S(=O)(=O)C(F)(F)F)c1 (racemic) [Example 342]")
132
>>> observed_measurement("COc1cc(C#N)c(O[C@H]2CC[C@@](C)(C(=O)O)CC2)cc1C(=O)N[C@@H]1[C@H]2CC[C@H](C2)[C@@H]1C(=O)N[C@@H](C)C(C)(C)C [Example 119]")
99
>>> observed_measurement("COc1cc(F)c(O[C@H]2CC[C@@](C)(C(N)=O)CC2)cc1C(=O)N[C@@H]1[C@H]2CC[C@H](C2)[C@@H]1C(=O)NCC(C)(C)C [Example 53]")
122
>>> observed_measurement("COc1cc(F)c(O[C@H]2CC[C@@](CO)(C(=O)O)CC2)cc1C(=O)NC1CC(OC)CC1C(=O)NCC(C)(C)C (single isomer, unassigned) [Example 548]")
117
>>> observed_measurement("CCC(CC)[C@@H](C)NC(=O)[C@H]1[C@@H]2CC[C@@H](C2)[C@H]1NC(=O)c1cc(O[C@H]2CC[C@@](C)(C(=O)O)CC2)c(F)cc1OC (single isomer, unassigned) [Example 145]")
95
>>> observed_measurement("COc1cc(F)c(O[C@H]2CC[C@@H](C(=O)O)CC2)cc1C(=O)N[C@H]1[C@@H](C(=O)Nc2ccc(F)c(S(F)(F)(F)(F)F)c2)[C@@H]2C=C[C@H]1C2 [Example 488]")
115
>>> observed_measurement("O=C(O)c1ccc(-c2cc(C(=O)N[C@H]3[C@@H](C(=O)Nc4cccc(S(=O)(=O)C(F)(F)F)c4)[C@@H]4C=C[C@H]3C4)c(F)cc2F)cc1 (racemic) [Example 306]")
73
>>> observed_measurement("COc1cc(F)c(O[C@H]2CC[C@@](C)(C(=O)O)CC2)cc1C(=O)N[C@@H]1[C@H]2CC[C@H](C2)[C@@H]1C(=O)NCC1(C(F)(F)F)CC1 [Example 614]")
96
>>> observed_measurement("COc1cc(C#N)c(O[C@H]2CC[C@@](C)(C(=O)O)CC2)cc1C(=O)N[C@@H]1[C@H]2CC[C@H](C2)[C@@H]1C(=O)NC1CCCCC1 [Example 121]")
98
>>> observed_measurement("CCC(C)(C)NC(=O)c1ccc(Cl)cc1NC(=O)c1cc(O[C@H]2CC[C@@](C)(C(=O)O)CC2)c(C#N)cc1OC [Example 163]")
151
>>> observed_measurement("CCC(CC)CNC(=O)[C@H]1[C@@H]2CC[C@@H](C2)[C@H]1NC(=O)c1cc(O[C@H]2CC[C@@H](C(=O)O)CC2)c(F)cc1OC [Example 197]")
106
>>> observed_measurement("COc1cc(C#N)c(O[C@H]2CC[C@@](C)(C(=O)O)CC2)cc1C(=O)N[C@@H]1[C@H]2CC[C@H](C2)[C@@H]1C(=O)NCC1CCOCC1 [Example 137]")
93
>>> observed_measurement("COc1cc(F)c(OC2CCC(C)(C(=O)O)CC2)cc1C(=O)NC1C2CCC(CC2)C1C(=O)NCC1(C)CCC1 (single isomer, unassigned) [Example 542]")
110
>>> observed_measurement("CCCC1(CNC(=O)[C@H]2[C@@H]3CC[C@@H](C3)[C@H]2NC(=O)c2cc(O[C@H]3CC[C@@](C)(C(=O)O)CC3)c(C#N)cc2OC)CCC1 [Example 83]")
111
>>> observed_measurement("COc1cc(F)c(O[C@H]2CC[C@@](O)(C(=O)O)CC2)cc1C(=O)N[C@@H]1[C@@H]2CC[C@@H](C2)[C@@H]1C(=O)Nc1cccc(S(=O)(=O)C(F)(F)F)c1 (racemic) [Example 422]")
102

Data origin: patent US11667602B2
